Source: the supplement of paper PMC8617591

Tested on: Mycobacterium tuberculosis Erdman (autoluminescent)
Test: total FIC50 (Loewe) at 50% inhibition, three-drug combination (log2); higher = more antagonistic
Conditions: in vitro model: cholesterol-high 0.2 mM; time point: constant (~7 days, model-specific)
I'd appreciate it if you could supply total FIC50 values for the items below.
# output: bare number, no unit

total FIC50 reading for NNC(=O)c1ccncc1 [isoniazid] + O=[N+]([O-])c1cn2c(n1)OC[C@@H](OCc1ccc(OC(F)(F)F)cc1)C2 [pretomanid] + NC(=O)c1cnccn1 [pyrazinamide] : 0.524

total FIC50 reading for CC(=O)NC[C@H]1CN(c2ccc(N3CCOCC3)c(F)c2)C(=O)O1 [linezolid] + O=[N+]([O-])c1cn2c(n1)OC[C@@H](OCc1ccc(OC(F)(F)F)cc1)C2 [pretomanid] + CO[C@H]1/C=C/O[C@@]2(C)Oc3c(C)c(O)c4c(O)c(c(/C=N/N5CCN(C)CC5)c(O)c4c3C2=O)NC(=O)/C(C)=C\C=C\[C@H](C)[C@H](O)[C@@H](C)[C@@H](O)[C@@H](C)[C@H](OC(C)=O)[C@@H]1C [rifampicin] : 0.326
